Target: T1, biotinylated goat anti-human kappa light chain
T1 construct: Positive control of the ELISA
Assay: ELISA, positive control; also: test concentration or dose not given here
Experimental readout: optical density (OD)

- 365_G02 (antibody, V domains shown, VH and VL only) VH: EVQLLESGGGLVQPGGSLRLSCAASGFTFSDYSMNWVRQAPGKGLEWVSNINYNSGYKGYADSVKGRFTISRDNSKNTLYLQMNSLRAEDTAVYYCARSATWHDTHLDYWGQGTLVTVSS VL: DIQMTQSPSSLSASVGDRVTITCRASQSIVTYLNWYQQKPGKAPKLVIYAVTSLHSGVPSRFSGSGSGTDFTLTISSLQPEDFATYYCQQSYELPLTFGGGTKVEIK: 3.45

Where these numbers come from: patent US20210380703A1
